I'd appreciate it if you could supply glycan array binding signal (z-score) values for the items below.
Molecular target: Neu5Ac(a2-3)Gal(b1-3)[Fuc(a1-4)]GlcNAc(b1-3)Gal(b1-4)[Fuc(a1-3)]GlcNAc
Experiment: glycan array binding signal (z-score within array); higher = stronger binding
Conditions: glycan notation: IUPAC condensed, linker removed
This excerpt belongs to a sample that is enriched for the strongest signals.
The reply should be a number, written without any unit.

For reference, reported glycan array binding signal (z-score) for SP16665A-bot-344-23-344 (Bacteroides ovatus) (protein) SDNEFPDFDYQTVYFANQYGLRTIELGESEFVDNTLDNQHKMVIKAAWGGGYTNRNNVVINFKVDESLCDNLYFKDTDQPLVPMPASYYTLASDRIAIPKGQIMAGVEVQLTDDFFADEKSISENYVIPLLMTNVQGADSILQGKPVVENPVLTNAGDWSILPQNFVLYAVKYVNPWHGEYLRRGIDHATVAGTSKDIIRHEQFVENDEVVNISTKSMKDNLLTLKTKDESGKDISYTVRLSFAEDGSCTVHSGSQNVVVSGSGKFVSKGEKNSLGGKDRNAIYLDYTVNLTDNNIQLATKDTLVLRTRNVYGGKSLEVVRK stands at 0.438

For reference, reported glycan array binding signal (z-score) for Gal 7 (Homo sapiens) (protein) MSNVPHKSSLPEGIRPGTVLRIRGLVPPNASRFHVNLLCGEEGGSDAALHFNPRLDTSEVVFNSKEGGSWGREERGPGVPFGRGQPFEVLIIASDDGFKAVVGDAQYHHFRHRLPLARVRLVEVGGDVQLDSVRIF stands at -0.197

For reference, reported glycan array binding signal (z-score) for HMGB1 (Homo sapiens), P09429 (protein) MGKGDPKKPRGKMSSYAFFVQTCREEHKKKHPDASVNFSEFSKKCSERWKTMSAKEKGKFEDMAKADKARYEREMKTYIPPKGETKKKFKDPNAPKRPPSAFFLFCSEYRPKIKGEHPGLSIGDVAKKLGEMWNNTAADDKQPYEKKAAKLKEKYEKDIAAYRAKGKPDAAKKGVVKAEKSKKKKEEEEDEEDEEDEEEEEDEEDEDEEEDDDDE stands at 0.178

For reference, reported glycan array binding signal (z-score) for FBG3 (Homo sapiens), Q9H4M3 (protein) MAVGNINELPENILLELFTHVPARQLLLNCRLVCSLWRDLIDLVTLWKRKCLREGFITEDWDQPVADWKIFYFLRSLHRNLLHNPCAEEGFEFWSLDVNGGDEWKVEDLSRDQRKEFPNDQVKKYFVTSYYTCLKSQVVDLKAEGYWEELMDTTRPDIEVKDWFAARPDCGSKYQLCVQLLSSAHAPLGTFQPDPATIQQKSDAKWREVSHTFSNYPPGVRYIWFQHGGVDTHYWAGWYGPRVTNSSITIGPPLP stands at 0.235

For reference, reported glycan array binding signal (z-score) for Si Bti9 1b-V5-his (Solanum lycopersicum) (protein) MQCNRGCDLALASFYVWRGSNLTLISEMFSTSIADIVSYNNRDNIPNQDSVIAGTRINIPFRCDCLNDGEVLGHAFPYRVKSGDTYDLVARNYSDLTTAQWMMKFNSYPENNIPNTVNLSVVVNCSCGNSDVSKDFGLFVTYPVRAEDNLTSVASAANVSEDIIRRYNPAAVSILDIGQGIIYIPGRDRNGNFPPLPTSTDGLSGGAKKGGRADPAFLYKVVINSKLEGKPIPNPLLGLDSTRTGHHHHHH stands at -0.294
